The origin of these recorded values is paper PMC9658316.

- System: CT26 colon cancer cells
- protocol.summary: Growth inhibitory effects on cultured CT26 cells (Presto Blue)
- Format: cell-based, mouse
- assay.context: CT26 monolayers, 1 µM, 72 h
reported.endpoint: cytotoxic / growth inhibitory effects

>>> df
                                   compound        value_observed
0  NC(=O)c1nnn(Cc2cc(Cl)c(C(=O)c3ccc(Cl)cc3)c(Cl)c2)c1N [compound aa, carboxyamidotriazole, reference compound]  very limited effects
1  COC(=O)c1cn(Cc2cc(Cl)c(C(=O)c3ccc(Cl)cc3)c(Cl)c2)nn1 [compound au]  very limited effects
2  NC(=O)c1nnn(Cc2cc(Cl)c(C(=O)c3ccc(C(F)(F)F)cc3)c(Cl)c2)c1N [ag]  very limited effects
3  NC(=O)c1nnn(Cc2cc(Cl)c(C(=O)C3CCCCC3)c(Cl)c2)c1N [compound aj]  very limited effects

###

Recorded [LAC] increase, one value per entry.
- Tested on: colorectal CT26 cancer cells
- protocol.summary: Compound-induced L-lactate release (Assay #1), CT26
- Assay type: cell-based, mouse
- assay.context: 10 µM, 24 h exposure, L-lactate secretion above basal release

# input What does the data say about its [LAC] increase? Entry: NCc1cn(Cc2cc(Cl)c(C(=O)c3ccc(Cl)cc3)c(Cl)c2)nn1
# output ~0 µmol/h/mg

# input What [LAC] increase value was documented for this molecule, O=C(O)c1cn(Cc2cc(Cl)c(C(=O)c3ccc(Cl)cc3)c(Cl)c2)nn1 ?
# output ~0 µmol/h/mg

###

- Test system: colorectal CT26 cancer cells
- protocol.summary: Compound-induced L-lactate release (Assay #1), CT26
- Assay type: cell-based, mouse
- assay.context: 10 µM, 24 h exposure, L-lactate secretion above basal release
reported.endpoint: [LAC] increase

// known answers, use as guide
In [3]: df
Out[3]:
                                   compound            measurement_target  reported_endpoint  value_observed
0  NC(=O)c1nnn(Cc2cc(Cl)c(C(=O)c3ccccc3)c(Cl)c2)c1N [ab]  colorectal CT26 cancer cells     [LAC] increase    ~2 µmol/h/mg
1  Nc1c(C(=O)O)nnn1Cc1cccc(N2CCOCC2)c1 [bd]  colorectal CT26 cancer cells     [LAC] increase    ~0 µmol/h/mg
2  COC(=O)c1cn(Cc2cc(Cl)c(C(=O)c3ccc(Cl)cc3)c(Cl)c2)nn1 [compound au]  colorectal CT26 cancer cells     [LAC] increase    ~4 µmol/h/mg

# input Entry under review: O=C(c1ccc(Cl)cc1)c1c(Cl)cc(Cn2cc(CO)nn2)cc1Cl [av] . Reported [LAC] increase?
# output ~0 µmol/h/mg

# input Returns the measured [LAC] increase for the input compound. Input: NC(=O)c1nnn(Cc2cc(Cl)c(C(=O)c3ccc(Cl)cc3)c(Cl)c2)c1N [compound aa, carboxyamidotriazole, reference compound]
# output ~2 µmol/h/mg

# input Sample NC(=O)c1nnn(Cc2cc(Cl)c(C(=O)c3ccc(C(F)(F)F)cc3)c(Cl)c2)c1N [ag] — what was its [LAC] increase?
# output ~4 µmol/h/mg

# input Reported [LAC] increase, compound Nc1c(C(=O)O)nnn1Cc1ccc(NC(=O)c2ccc(Cl)cc2)cc1 [ba] : ____
# output ~0 µmol/h/mg

# input Would you kindly share the measured [LAC] increase for Cc1cccc(C(=O)c2c(Cl)cc(Cn3nnc(C(N)=O)c3N)cc2Cl)c1 [ad] ?
# output ~2 µmol/h/mg

# input Return reported [LAC] increase; argument: NC(=O)c1nnn(Cc2cc(Cl)c(C(=O)C3CCCCC3)c(Cl)c2)c1N [compound aj]
# output ~4 µmol/h/mg

###

- System: colorectal CT26 cancer cells
- protocol.summary: Compound-induced L-lactate release (Assay #1), CT26
- Format: cell-based, mouse
- assay.context: 10 µM, 24 h exposure, L-lactate secretion above basal release
# reported [LAC] increase; entries follow

Worked cases, answers included:
>>> df
                                        smi  value_observed
0  CC(C)(C)OC(=O)N1CCC(Nc2cccc(Cn3nnc(C(=O)O)c3N)c2)CC1    ~0 µmol/h/mg
1  NC(=O)c1cn(Cc2cc(Cl)c(C(=O)c3ccc(Cl)cc3)c(Cl)c2)nn1    ~2 µmol/h/mg
2   CC(=O)c1c(Cl)cc(Cn2nnc(C(N)=O)c2N)cc1Cl    ~2 µmol/h/mg
3  Nc1c(C(=O)O)nnn1Cc1ccccc1NC(=O)c1ccc(OC(F)(F)F)cc1    ~0 µmol/h/mg
4  NC(=O)c1cn(Cc2cc(F)c(C(=O)c3ccc(Cl)cc3)c(F)c2)nn1    ~0 µmol/h/mg

# input Form field: reported [LAC] increase of NC(=O)c1nnn(Cc2cc(Cl)c(C(=O)c3ccc(OC(F)(F)F)cc3)c(Cl)c2)c1N
# output ~2 µmol/h/mg

# input Would you mind telling me what [LAC] increase value was observed for NC(=O)c1nnn(Cc2cc(Cl)c(Cc3ccc(Cl)cc3)c(Cl)c2)c1N ?
# output ~4 µmol/h/mg

# input Which [LAC] increase reading was recorded for the compound NC(=O)c1nnn(Cc2cc(Cl)c(C(=O)c3ccc4ccccc4c3)c(Cl)c2)c1N ?
# output ~2 µmol/h/mg

# input Could you tell me which [LAC] increase is on file for C=CCNC(=O)c1nnn(Cc2cc(Cl)c(C(=O)c3ccc(C(F)(F)F)cc3)c(Cl)c2)c1N ?
# output ~0 µmol/h/mg

# input Dear colleague, I am looking for the recorded [LAC] increase of the following compound: NC(=O)c1nnn(Cc2cc(F)c(C(=O)c3ccc(Cl)cc3)c(F)c2)c1N
# output ~4 µmol/h/mg

# input Would you mind telling me what [LAC] increase value was observed for COc1ccc(C(=O)c2c(Cl)cc(Cn3nnc(C(N)=O)c3N)cc2Cl)cc1 ?
# output ~2 µmol/h/mg

###

- measurement.target: mitochondrial complex I (Mus musculus, UniProt P03888+Q91WD5+Q9DC70)
- protocol.summary: Seahorse OCR in permeabilized CT26 cancer cells, mitochondrial complex I inhibition (Assay #2)
- Type: cell-based
- assay.context: pyruvate/malate, tested at 1 and 10 µM, read-out: OCR inhib. (IC50)
pIC50: −log10 of the molar value.
reported.endpoint: pIC50

Consider the reported pIC50 for these compounds:
In [3]: df
Out[3]:
                                   compound                        measurement_target  value_observed
0  NC(=O)c1cn(Cc2cc(F)c(C(=O)c3ccc(Cl)cc3)c(F)c2)nn1 [aw]  mitochondrial complex I (Mus musculus, UniProt P03888+Q91WD5+Q9DC70)          < 5.00
1    Nc1c(C(=O)O)nnn1Cc1ccccc1N1CCSCC1 [bf]  mitochondrial complex I (Mus musculus, UniProt P03888+Q91WD5+Q9DC70)          < 5.00

# input Need pIC50, item NC(=O)c1nnn(Cc2cc(F)c(C(=O)c3ccc(Cl)cc3)c(F)c2)c1N [an]
# output ~5.00

# input Item under review: NC(=O)c1nnn(Cc2cc(Cl)c(C(=O)c3ccccc3)c(Cl)c2)c1N [ab] . Reported pIC50?
# output ~5.00

# input Fill in the blank: the reported pIC50 of C=CCNC(=O)c1nnn(Cc2cc(Cl)c(C(=O)c3ccc(C(F)(F)F)cc3)c(Cl)c2)c1N [ak] is ____.
# output < 5.00

###

- Test system: colorectal CT26 cancer cells
- protocol.summary: Compound-induced L-lactate release (Assay #1), CT26
- Assay type: cell-based, mouse
- assay.context: 10 µM, 24 h exposure, L-lactate secretion above basal release
reported.endpoint: [LAC] increase

In [3]: df
Out[3]:
                                        smi  value_observed
0  Cc1ccc(C(=O)c2c(Cl)cc(Cn3nnc(C(N)=O)c3N)cc2Cl)cc1    ~2 µmol/h/mg

# input Which value of [LAC] increase has been reported for NC(=O)c1nnn(Cc2cc(Cl)c(Cc3ccc(C(F)(F)F)cc3)c(Cl)c2)c1N in the records?
# output ~0 µmol/h/mg

# input Find the recorded [LAC] increase belonging to Cc1cc(C)cc(Cn2nnc(C(N)=O)c2N)c1 and report it.
# output ~0 µmol/h/mg

###

- System: colorectal CT26 cancer cells
- protocol.summary: Compound-induced L-lactate release (Assay #1), CT26
- Type: cell-based, mouse
- assay.context: 10 µM, 24 h exposure, L-lactate secretion above basal release
reported.endpoint: [LAC] increase

>>> df
                                        smi            measurement_target  reported_endpoint  value_observed
0         NC(=O)c1nnn(Cc2cc(Cl)cc(Cl)c2)c1N  colorectal CT26 cancer cells     [LAC] increase    ~0 µmol/h/mg
1         Nc1c(C(=O)O)nnn1Cc1ccccc1N1CCSCC1  colorectal CT26 cancer cells     [LAC] increase    ~0 µmol/h/mg
2  NC(=O)c1nnn(Cc2cc(Cl)c(CN3CCOCC3)c(Cl)c2)c1N  colorectal CT26 cancer cells     [LAC] increase    ~2 µmol/h/mg

# input for lookup
# input Which value of [LAC] increase has been reported for Nc1c(C(=O)O)nnn1Cc1cccc(NC(=O)c2ccc(OC(F)(F)F)cc2)c1 in the records?
# output ~0 µmol/h/mg
